Reference for the values: PubChem BioAssay (NCI)

System: SF-295 CNS
Assay: NCI tumour cell line growth inhibition, 48 h
Answer each item with its documented GI50.

Recorded GI50, per entry:
>  <Molecule>
CN1C(=O)C2(c3ccccc31)N(c1ccc(Cl)cc1)C(=O)C2(c1ccccc1)c1ccccc1 (stereo not given)

>  <GI50>
11 µM

$$$$
>  <Molecule>
Cc1cc(Cl)nc(N(CCCNc2ccnc3cc(Cl)ccc23)Cc2ccco2)n1

>  <GI50>
1.28 µM

$$$$
>  <Molecule>
CC(=O)c1c(C)[nH]c(-c2nc3ccc(N4CCN(C)CC4)cc3[nH]2)c1-c1ccccc1

>  <GI50>
2.07 µM

$$$$
>  <Molecule>
O=C1Cc2cc(C(=O)NC3C[C@H]4CC[C@@H](C3)N4S(=O)(=O)CC3CCN(CCCC(F)(F)F)CC3)c(Cl)cc2N1 (stereo not given in full)

>  <GI50>
> 100 µM

$$$$
>  <Molecule>
CC[n+]1c(/C=C/C=C2\N(C)c3ccccc3C2(C)C)sc2ccccc21

>  <GI50>
3.88 µM

$$$$

Quick request: GI50 for each listed item, please.
1. c1ccc2c3c([nH]c2c1)C(c1ccc(C2NCCc4c2[nH]c2ccccc42)cc1)NCC3 (stereo not given)
2. O=C1/C=C/[C@@H](O)[C@@H]2C[C@@H](O)C[C@H]2/C=C/CCC[C@H](C(F)(F)F)O1
3. COc1ccc(/C=C/C(=O)c2sc(-n3nc(-c4ccccc4)cc3-c3ccccc3)nc2C)cc1
4. COc1nnc2ccc(N3CCC(c4ccc(OCCN5CCN(C)C(=O)[C@H]5C)cc4)CC3)nn12

["1.62 µM", "> 27 µM", "> 100 µM", "0.206 µM"]

The reported value for COc1ccc(N=N/C(C(=O)C(F)(F)F)=C(\O)c2ccc(Cl)cc2)cc1 in terms of GI50 is 2.67 µM

----------
Test system: OVCAR-5 ovarian
Assay: NCI tumour cell line growth inhibition, 48 h
Measured Property: TGI

Recorded TGI, per entry:
>  <Compound>
O=C(Nc1nc2c(ncn2C2OC(CO)C(O)C2O)c(=O)[nH]1)c1ccccc1 (stereo unspecified)

>  <Result>
> 100 µM

$$$$
>  <Compound>
O=C(Nc1nc2ccccc2s1)Nc1ccc([N+](=O)[O-])cc1Cl

>  <Result>
25.7 µM

$$$$
>  <Compound>
CC(C)(C)N(Cc1ccc2c(c1)OCO2)C(=O)/C=C\Sc1ccccc1

>  <Result>
> 100 µM

$$$$
>  <Compound>
CCSc1c2ccccc2c(-c2nc(F)nc(F)n2)n1CCc1ccccc1

>  <Result>
> 100 µM

$$$$
>  <Compound>
c1ccc2c(c1)cc1n2CC2CN=NC12 (stereo unspecified)

>  <Result>
> 100 µM

$$$$

Query compound follows.
Field TGI (OVCAR-5 ovarian), entry O=C1NC(=NCCCc2ccccc2)S/C1=C\c1ccc2ncccc2c1 : > 25 µM

----------
Answer each item with its documented TGI.
Test system: XF 498 CNS
Assay: NCI tumour cell line growth inhibition, 48 h

Recorded TGI, per entry:
>  <Molecule>
CC(=O)O[C@H]1CC[C@@]2(C)C(=CC[C@@H]3C2CC[C@]2(C)Nc4nc5ccccc5cc4CC32)C1 (stereo partly specified)

>  <System Under Test>
XF 498 CNS

>  <TGI>
18.5 µM

$$$$
>  <Molecule>
NC(=O)NC1C(C(N)=O)N(Cc2ccccc2)C(=O)N1Cc1ccccc1 (stereo unspecified)

>  <System Under Test>
XF 498 CNS

>  <TGI>
> 100 µM

$$$$
>  <Molecule>
Cc1ccc(S(=O)(=O)N/N=C(/c2nc3ccc([N+](=O)[O-])cc3[nH]c2=O)C(O)c2ccc(C(O)/C(=N\NS(=O)(=O)c3ccc(C)cc3)c3nc4ccc([N+](=O)[O-])cc4[nH]c3=O)cc2)cc1 (stereo unspecified)

>  <System Under Test>
XF 498 CNS

>  <TGI>
> 100 µM

$$$$
>  <Molecule>
CC(=O)C1=C(O)C2C3c4c[nH]c5cccc(c45)CC3C(C)(C)N2C1=O (stereo unspecified)

>  <System Under Test>
XF 498 CNS

>  <TGI>
> 100 µM

$$$$
>  <Molecule>
Nc1ncnc2c1ncn2C1CC(OCc2ccccc2[N+](=O)[O-])C(CO)O1 (stereo unspecified)

>  <System Under Test>
XF 498 CNS

>  <TGI>
> 50 µM

$$$$

Query molecule follows.
Field TGI (XF 498 CNS), entry CSC(=Nc1ccccc1)/N=C(\SCc1ccccc1)N(C)C : 2.66 µM
